pIC50: −log10 of the molar value.
Record set: pIC50 | PIK3CA (human) | literature, multiple sources.
Reported Metric: pIC50

>>> measured("CC(C)(CF)c1nc2c(s1)CCc1nc(NC(=O)N3CCC[C@H]3C(N)=O)sc1-2")
8.15
>>> measured("O=c1cc(Oc2ccccc2)c2cc(N3CCOCC3)ccc2[nH]1")
5.93
>>> measured("CN(C)CCNC(=O)Nc1ccc(Nc2nc(Nc3ccc(C(N)=O)cc3)c3cnn(C)c3n2)cc1")
8.00
>>> measured("C=CCOc1cc(C(F)(F)F)nc(-c2ccc(NC(=O)CCl)cn2)n1")
5.82

###

Here is a set of compounds with reported IC50 for UniProtKB P42336, compiled from the literature.
Reported Metric: IC50

>>> measured("CC(=O)N1CCC(n2cnc3ccc(-c4ccc5oc(N)nc5c4)cc3c2=O)CC1")
"< 10000 nM"
>>> measured("CN1CCC(C(=O)N2CCC(n3nnc4cnc5ccc(-c6cnc(N)c(C(F)(F)F)c6)nc5c43)CC2)CC1")
"< 100 nM"
>>> measured("Cc1cccc2cc([C@H](C)Nc3ncnc4[nH]nc(C#N)c34)n(-c3ccccc3)c(=O)c12")
"< 10000 nM"
>>> measured("COc1ccc(Oc2nc(-c3ccc(N(C)C)cc3)nc3c2cnn3C)cc1OC")
"6040 nM"
>>> measured("CC(=O)N1[C@H](C)CN(c2nc3c(N4CCOCC4)nc(-c4cnc(N)nc4)nc3n2CC(F)(F)F)C[C@@H]1C")
"< 10 nM"
>>> measured("O=C(Nc1ccc(CO)cc1)Nc1ccc(-c2nc(N3CCOCC3)c3ccn(CC(F)(F)F)c3n2)cc1")
"12 nM"
>>> measured("Nc1nc2ccc(-c3ccc4ncn(C5CCOCC5)c(=O)c4c3)cc2o1")
"< 10000 nM"
>>> measured("O=c1cc(Oc2ccccc2)c2ccc(Cl)cc2[nH]1")
"308 nM"
